MEASURED_ON: ~100 representative kinases (Homo sapiens)
Construct: Recombinant protein kinase domains with a concentration of 2 μM
ASSAY_NOTES: DSF 100 kinase selectivity screen;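 further: compound tested at 20 µM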
Assay type: binding
CONDITION_NOTES: Protein EPHA7; average of three replicates
compounds and their reported dTm

COMPOUND	dTm
CCSc1nc(NC)c2c(-c3cccc(NC(=O)Nc4cc(C(C)(C)C)nn4-c4ccc(C)cc4)c3)c[nH]c2n1 [Compound 32]	0.38 K
Cc1ccc(NC(=O)C2(C(=O)Nc3cccc(-c4c[nH]c5ncnc(N6CCOCC6)c45)c3)CC2)cc1 [Compound 14]	-1.63 K
Cn1cc(-c2c[nH]c3ncnc(N4CCOCC4)c23)cc1C#N [PFE-360]	-0.34 K
CC(C)(C)c1cc(NC(=O)Nc2cccc(-c3c[nH]c4ncnc(N5CCOCC5)c34)c2)n(-c2ccc3ncccc3c2)n1 [Compound 28]	1.92 K
C[C@@H]1CN(c2cc(-c3n[nH]c4ccc(OC5(C)CC5)cc34)ncn2)C[C@H](C)O1 [MLi2]	0.12 K

* * *

MEASURED_ON: ~100 representative kinases (Homo sapiens)
Construct: Recombinant protein kinase domains with a concentration of 2 μM
ASSAY_NOTES: DSF 100 kinase selectivity screen;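 further: compound tested at 20 µM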
Assay type: binding
CONDITION_NOTES: Protein SRPK3; DSF; average of three replicates
MEASURED_ENDPOINT: dTm

O=C(Nc1cccc(-c2c[nH]c3ncnc(N4CCOCC4)c23)c1)C1(C(=O)Nc2ccc(F)cc2F)CC1 4.09 K
Cc1ccc(-n2nc(C(C)(C)C)cc2NC(=O)Nc2cccc(-c3c[nH]c4ncnc(N5CCOCC5)c34)c2)cc1 6.09 K
COc1ccc(NC(=O)C2(C(=O)Nc3cccc(-c4c[nH]c5ncnc(N6CCOCC6)c45)c3)CC2)cc1 2.74 K
O=C(Nc1ccc(Cl)cc1)C1(C(=O)Nc2cccc(-c3c[nH]c4ncnc(N5CCOCC5)c34)c2)CC1 8.47 K
CC(C)(C)c1cc(NC(=O)Nc2cccc(-c3c[nH]c4ncnc(N5CCOCC5)c34)c2)n(-c2ccc3ncccc3c2)n1 9.26 K
CCc1ccc(NC(=O)C2(C(=O)Nc3cccc(-c4c[nH]c5ncnc(N6CCOCC6)c45)c3)CC2)cc1 3.89 K

* * *

molecules and their reported dTm
MEASURED_ON: ~100 representative kinases (Homo sapiens, UniProt P54756)
Construct: Recombinant protein kinase domains with a concentration of 2 μM
Sequence (P54756 25-1037): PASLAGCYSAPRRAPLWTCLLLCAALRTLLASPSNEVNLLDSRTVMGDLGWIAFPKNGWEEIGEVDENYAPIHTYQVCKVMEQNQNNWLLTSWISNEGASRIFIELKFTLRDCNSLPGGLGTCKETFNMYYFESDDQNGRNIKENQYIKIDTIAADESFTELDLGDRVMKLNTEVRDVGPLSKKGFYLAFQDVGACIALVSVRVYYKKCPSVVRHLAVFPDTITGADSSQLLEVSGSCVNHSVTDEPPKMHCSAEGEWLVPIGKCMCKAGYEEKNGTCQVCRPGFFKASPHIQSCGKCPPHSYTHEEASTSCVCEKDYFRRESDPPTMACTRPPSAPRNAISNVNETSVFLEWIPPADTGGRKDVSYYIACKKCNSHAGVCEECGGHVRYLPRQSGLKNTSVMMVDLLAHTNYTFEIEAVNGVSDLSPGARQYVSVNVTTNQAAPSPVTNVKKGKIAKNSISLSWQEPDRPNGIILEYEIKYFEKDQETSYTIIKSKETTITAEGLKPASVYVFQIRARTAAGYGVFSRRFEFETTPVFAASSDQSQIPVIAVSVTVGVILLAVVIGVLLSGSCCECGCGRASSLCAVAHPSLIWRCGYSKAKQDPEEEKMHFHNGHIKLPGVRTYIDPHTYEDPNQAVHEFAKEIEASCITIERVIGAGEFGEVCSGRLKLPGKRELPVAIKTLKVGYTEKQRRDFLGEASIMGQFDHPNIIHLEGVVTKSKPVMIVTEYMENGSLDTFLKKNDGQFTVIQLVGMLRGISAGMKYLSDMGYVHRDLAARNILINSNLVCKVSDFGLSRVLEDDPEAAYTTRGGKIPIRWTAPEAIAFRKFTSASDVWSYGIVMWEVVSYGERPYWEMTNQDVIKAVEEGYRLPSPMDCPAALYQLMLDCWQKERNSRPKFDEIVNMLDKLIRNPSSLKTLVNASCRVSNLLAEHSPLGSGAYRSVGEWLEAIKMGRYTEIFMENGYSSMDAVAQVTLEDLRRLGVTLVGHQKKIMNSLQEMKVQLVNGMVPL
ASSAY_NOTES: DSF 100 kinase selectivity screen;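 further: compound tested at 20 µM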
Assay type: binding
CONDITION_NOTES: Protein EPHA5; average of three replicates
MEASURED_ENDPOINT: dTm (K)

MOLECULE	QUANTITATIVE_READOUT
O=C(Nc1cccc(-c2c[nH]c3ncnc(N4CCOCC4)c23)c1)C1(C(=O)Nc2ccc(F)c(F)c2)CC1	2.05
O=C(Nc1ccc(F)cc1)C1(C(=O)Nc2cccc(-c3c[nH]c4ncnc(N5CCOCC5)c34)c2)CC1	3.27
O=C(Nc1ccccc1)C1(C(=O)Nc2cccc(-c3c[nH]c4ncnc(N5CCOCC5)c34)c2)CC1	1.91
O=C(Nc1cccc(-c2c[nH]c3ncnc(N4CCOCC4)c23)c1)C1(C(=O)Nc2ccc(F)c(Br)c2)CC1	2.70
Cc1ccc(NC(=O)C2(C(=O)Nc3cccc(-c4c[nH]c5ncnc(N6CCOCC6)c45)c3)CC2)cc1	3.63
CNC(=O)c1cc(Oc2ccc(NC(=O)Nc3cc(C(C)(C)C)nn3-c3ccc4ncccc4c3)c(F)c2)ccn1 [Rebastinib, reference compound]	10.65
O=C(Nc1cccc(-c2c[nH]c3ncnc(N4CCOCC4)c23)c1)C1(C(=O)Nc2cccc3c2CCC3)CC1	-0.41
CCc1ccc(NC(=O)C2(C(=O)Nc3cccc(-c4c[nH]c5ncnc(N6CCOCC6)c45)c3)CC2)cc1	2.15
O=C(Nc1cccc(-c2c[nH]c3ncnc(N4CCOCC4)c23)c1)c1cccn(-c2ccc(F)cc2)c1=O	3.25
CC(C)(C)c1cc(NC(=O)Nc2cccc(-c3c[nH]c4ncnc(N5CCOCC5)c34)c2)n(-c2ccc3ncccc3c2)n1	9.59
